targetEntity: RhoGDIα (Homo sapiens)
Sequence (P52565 1-204): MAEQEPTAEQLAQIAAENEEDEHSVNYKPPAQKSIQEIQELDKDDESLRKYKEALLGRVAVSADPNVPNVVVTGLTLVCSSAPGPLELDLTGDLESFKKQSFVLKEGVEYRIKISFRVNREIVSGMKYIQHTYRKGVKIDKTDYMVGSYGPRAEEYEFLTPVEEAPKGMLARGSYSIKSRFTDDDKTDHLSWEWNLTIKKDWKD
Assay type: binding
details: read-out: EC50 for displacement of halothane; 1.0 mM halothane
measureName: pEC50
One number for each entry, as −log10 of the molar value.

Exam item: Bench note: what pEC50 did "CCCCO" show?
Marked response: 1.28

FYI, the data here is from paper PMC4556268.
